Target: CYP1B1 (Homo sapiens, UniProt Q16678)
Sequence (Q16678 whole entry): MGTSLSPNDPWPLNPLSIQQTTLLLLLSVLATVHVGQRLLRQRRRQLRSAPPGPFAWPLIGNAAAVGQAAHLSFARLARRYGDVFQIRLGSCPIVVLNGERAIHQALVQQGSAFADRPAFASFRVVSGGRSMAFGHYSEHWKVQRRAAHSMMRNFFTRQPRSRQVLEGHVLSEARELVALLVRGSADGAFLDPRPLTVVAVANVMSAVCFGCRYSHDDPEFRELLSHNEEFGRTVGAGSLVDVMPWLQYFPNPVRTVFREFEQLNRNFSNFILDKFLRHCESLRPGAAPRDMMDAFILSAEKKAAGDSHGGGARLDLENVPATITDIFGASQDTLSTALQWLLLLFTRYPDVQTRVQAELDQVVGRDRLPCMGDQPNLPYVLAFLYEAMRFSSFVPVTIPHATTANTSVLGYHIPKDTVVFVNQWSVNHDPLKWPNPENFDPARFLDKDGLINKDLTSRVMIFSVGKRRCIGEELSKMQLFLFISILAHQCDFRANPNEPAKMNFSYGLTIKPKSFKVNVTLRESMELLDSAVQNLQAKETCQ
Assay: EROD (ethoxyresorufin deethylase) assay in V79 cells expressing human CYP1B1
endpoint: IC50 (nM)
Express your answer in nM, writing the number without its unit.

// query Find the recorded IC50 belonging to CC#Cc1ccc2ccc3cccc4ccc1c2c34 [1-PP, 1-(1-propynyl)-pyrene] and report it.
// result 218

###

Target: CYP1A1 (Homo sapiens, UniProt P04798)
Sequence (P04798 whole entry): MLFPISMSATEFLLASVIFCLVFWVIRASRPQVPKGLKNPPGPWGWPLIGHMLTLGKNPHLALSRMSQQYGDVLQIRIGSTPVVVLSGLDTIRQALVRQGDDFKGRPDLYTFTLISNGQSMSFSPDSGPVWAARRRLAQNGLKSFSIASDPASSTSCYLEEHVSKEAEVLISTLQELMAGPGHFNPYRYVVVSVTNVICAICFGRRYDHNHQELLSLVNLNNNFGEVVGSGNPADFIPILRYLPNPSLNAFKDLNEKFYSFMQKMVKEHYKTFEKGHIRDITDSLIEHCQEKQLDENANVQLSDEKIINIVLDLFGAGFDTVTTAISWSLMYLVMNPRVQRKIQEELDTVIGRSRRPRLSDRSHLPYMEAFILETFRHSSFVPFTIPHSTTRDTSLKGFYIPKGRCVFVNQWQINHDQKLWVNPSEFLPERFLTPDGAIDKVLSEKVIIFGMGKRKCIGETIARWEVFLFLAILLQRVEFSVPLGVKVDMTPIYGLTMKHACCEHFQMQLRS
Test: EROD (ethoxyresorufin deethylase) assay in V79 cells expressing human CYP1A1
endpoint: pIC50
Keep it numeric: pIC50 is minus log10 of the concentration in mol/L.

// query Find the measured pIC50: item CC#Cc1ccc2ccc3cccc4ccc1c2c34 , target or system CYP1A1 (Homo sapiens, UniProt P04798).
// result 8.30
